experiment: Unbound clearance in human hepatocytes; format: ADME, cell-based, Hepatocyte
Experimental readout: CL free (mL/min/kg)
One number for each entry, in mL/min/kg.

Some solved cases for reference:
Recorded CL free for COc1nc(C2=NOCC(c3ccc(C(F)(F)F)cc3)N2)ccc1-n1cnc(C)c1 (stereo not given) , please?
12

Also, COc1nc(C2=NOCC(c3ccc(Cl)c(F)c3)N2)ccc1-n1cnc(C)c1 (stereo not given) please.
32

// repeat for COc1nc(C2=NOCC(c3ccc(C(F)(F)F)c(F)c3)N2)ccc1-n1cnc(C)c1 (stereo not given) and report
62

// same read-out, input: COc1nc(C2=NOCC(c3ccc(C4CC4)c(Cl)c3)N2)ccc1-n1cnc(C)c1 (stereo not given)
1147

More entries:
Recorded CL free for COc1nc(C2=NOCC(c3ccc(C4CC4)cc3)N2)ccc1-n1cnc(C)c1 (stereo not given) , please?
208

---

test: Cmax in rat at 3 mg/kg, po; format: ADME, organism-based; set-up: route oral, dose 3 mg/kg; details: in vivo
Experimental readout: Cmax
Form entry: enter the amount, then its unit.

Record request: Cmax value, item COc1nc(C2=NOC(C3CC3)C(c3ccc(Cl)cc3)N2)ccc1-n1cnc(C)c1 (stereo unspecified)
754 nM

---

Answer each item with its documented EC90.
target: Gamma-secretase (Homo sapiens) (UniProt Q96BI3+Q9NZ42+Q8WW43+P49768+Q92542+P49810); experiment: Modulation of gamma-secretase in human H4 cells expressing human wild type APP751 assessed as reduction in amyloid beta42 level incubated overnight by ELISA; format: cell-based; settings: filed as modulator
Give bare numbers, in nM.

In the examples that follow, each entry is paired with its recorded EC90.
Using the record for COc1nc(C2=NOC(C3CC3)C(c3ccc(Cl)cc3)N2)ccc1-n1cnc(C)c1 (stereo not given) , report its EC90.
123

Repeat for the following molecule: COc1nc(C2=NOCC(c3ccc(Cl)c(C)c3)N2)ccc1-n1cnc(C)c1 (stereo not given)
127

What about COc1nc(C2=NOC(C)C(c3ccc(Cl)c(F)c3)N2)ccc1-n1cnc(C)c1 (stereo not given) ?
97

Please answer likewise for COc1nc(C2=NOCC(c3ccc(Cl)c(F)c3)N2)ccc1-n1cnc(C)c1 (stereo not given)
246

--- query ---
Consider the molecule COc1nc(C2=NOCC(c3ccc(Cl)c(Cl)c3)N2)ccc1-n1cnc(C)c1 (stereo not given) and give its measured EC90.
97

---

test: Volume of distribution at steady state in nonhuman primate at 1 mg/kg, iv; format: ADME, organism-based; settings: primates, in vivo, read-out: Vdss
Experimental readout: Vd (L/kg)
Give bare numbers, in L/kg.

Vd lookup needed for COc1nc(C2=NOC(C3CC3)C(c3ccc(Cl)cc3)N2)ccc1-n1cnc(C)c1 (stereo unspecified) , thanks.
1.2

---

test: Cmax in nonhuman primate at 10 mg/kg, po; assay type: ADME, organism-based; set-up: route oral, dose 10 mg/kg; conditions: primates, in vivo
Experimental readout: Cmax
Number first, unit second.

Which measured Cmax value corresponds to COc1nc(C2=NOC(C3CC3)C(c3ccc(Cl)cc3)N2)ccc1-n1cnc(C)c1 (stereo unspecified) ?
6.09 µM

---

experiment: Clearance in nonhuman primate at 1 mg/kg, iv; type: ADME, organism-based; details: primates, in vivo
Experimental readout: clearance (mL/min/kg)
Numbers only, in mL/min/kg.

Name the recorded clearance for COc1nc(C2=NOC(C3CC3)C(c3ccc(Cl)cc3)N2)ccc1-n1cnc(C)c1 (stereo unspecified) .
3.5

---

system: Rattus norvegicus; assay: In vivo modulation of gamma secretase in rat assessed as reduction in Abeta42 levels in brain at 30 mg/kg, po measured after 6 hrs by ELISA relative to control; type: functional; parameters: scale not given: the % may be the effect or the level left
Experimental readout: Activity (%)
Numbers only, in %.

Under Rattus norvegicus: Activity value of COc1nc(C2=NOC(C)C(c3ccc(Cl)c(F)c3)N2)ccc1-n1cnc(C)c1 (centres undefined) ?
44

Entry `COc1nc(C2=NOC[C@H](c3cc4ccccc4o3)N2)ccc1-n1cnc(C)c1` please
30

Another compound to look at: COc1nc(C2=NOC(C3CC3)C(c3ccc(Cl)cc3)N2)ccc1-n1cnc(C)c1 (centres undefined)
56

// next item, Activity requested
What reported Activity corresponds to COc1nc(C2=NOC(C)C(c3ccc(Cl)cc3)N2)ccc1-n1cnc(C)c1 (centres undefined) on Rattus norvegicus?
41

---

assay: AUClast in rat at 3 mg/kg, po; type: ADME, organism-based; design: time 0 - last, route oral, dose 3 mg/kg; conditions: in vivo
Experimental readout: AUC(0-t) (µM·h)
Numbers only, in µM·h.

Using the record for COc1nc(C2=NOC(C3CC3)C(c3ccc(Cl)cc3)N2)ccc1-n1cnc(C)c1 (stereo unspecified) , report its AUC(0-t).
11.6

---

experiment: Cmax in dog at 10 mg/kg, po; format: ADME, organism-based, Canis lupus familiaris; parameters: route oral, dose 10 mg/kg; conditions: in vivo
Experimental readout: Cmax (µM)
Answers are plain numbers, in µM.

Sample COc1nc(C2=NOC(C3CC3)C(c3ccc(Cl)cc3)N2)ccc1-n1cnc(C)c1 (stereo unspecified) — what was its Cmax?
4.03

---

experiment: Bioavailability in nonhuman primate at 1 mg/kg, iv; format: ADME, organism-based; details: primates, in vivo
Experimental readout: bioavailability (%)
One number for each entry, in %.

What value of measured bioavailability is listed for COc1nc(C2=NOC(C3CC3)C(c3ccc(Cl)cc3)N2)ccc1-n1cnc(C)c1 (stereo unspecified) ?
113

---

system: Mus musculus; test: In vivo modulation of gamma secretase in mouse assessed as reduction in Abeta42 levels in brain at 30 mg/kg, po measured after 6 hrs relative to control; assay type: functional; set-up: scale not given: the % may be the effect or the level left
Give measured Activity for each item. Keep answers brief.
Give bare numbers, in %.

Hi team, please reply with Activity for each item in this list.
1. COc1nc(C2=NOC(C3CC3)C(c3ccc(Cl)cc3)N2)ccc1-n1cnc(C)c1 (configuration not stated)
2. COc1nc(C2=NOCC(c3ccc(Cl)cc3)N2)ccc1-n1cnc(C)c1 (configuration not stated)
3. COc1nc(C2=NOCC(c3ccc(C(F)(F)F)cc3)N2)ccc1-n1cnc(C)c1 (configuration not stated)
4. COc1nc(C2=NOC(C)C(c3ccc(Cl)c(F)c3)N2)ccc1-n1cnc(C)c1 (configuration not stated)
5. COc1nc(C2=NOCC(c3ccc(Cl)c(F)c3)N2)ccc1-n1cnc(C)c1 (configuration not stated)

[51, 26, 36, 43, 28]

Value sought for every listed molecule: Activity.
1. COc1nc(C2=NOC(C)C(c3ccc(Cl)cc3)N2)ccc1-n1cnc(C)c1 (configuration not stated)
2. COc1nc(C2=NOCC(c3cc(Cl)cc(Cl)c3)N2)ccc1-n1cnc(C)c1 (configuration not stated)
3. COc1nc(C2=NOCC(c3ccc(F)c(Cl)c3)N2)ccc1-n1cnc(C)c1 (configuration not stated)
4. COc1nc(C2=NOCC(c3ccc(Cl)c(C)c3)N2)ccc1-n1cnc(C)c1 (configuration not stated)
5. COc1nc(C2=NOCC(c3ccc(F)c(C(F)(F)F)c3)N2)ccc1-n1cnc(C)c1 (configuration not stated)
6. COc1nc(C2=NOCC(c3ccc(Cl)c(Cl)c3)N2)ccc1-n1cnc(C)c1 (configuration not stated)
7. COc1nc(C2=NOC[C@H](c3cc4ccccc4o3)N2)ccc1-n1cnc(C)c1

1: 47; 2: 23; 3: 30; 4: 30; 5: 41; 6: 37; 7: 43

---

Exercise: state measured pEC50 for each of the molecules provided.
target: Gamma-secretase; test: Modulation of gamma-secretase in human H4 cells expressing human wild type APP751 assessed as reduction in amyloid beta42 level incubated overnight by ELISA
Numbers only, as −log10 of the molar value.

For every record below, what is its pEC50?
1. COc1nc(C2=NOCC(c3ccc(F)c(Cl)c3)N2)ccc1-n1cnc(C)c1 (stereo not given)
2. COc1nc(C2=NOC(C3CC3)C(c3ccc(Cl)cc3)N2)ccc1-n1cnc(C)c1 (stereo not given)
3. COc1nc(C2=NOCC(c3cccc(C#N)c3)N2)ccc1-n1cnc(C)c1 (stereo not given)
4. COc1nc(C2=NOCC(c3cccc(C(F)(F)F)c3)N2)ccc1-n1cnc(C)c1 (stereo not given)
5. COc1ccc(C2CON=C(c3ccc(-n4cnc(C)c4)c(OC)n3)N2)cc1 (stereo not given)

7.64
8.05
6.67
7.37
7.01

---

assay: Unbound clearance in human hepatocytes; type: ADME, cell-based, Hepatocyte
Each entry belongs to exactly one class, chosen by where its CL free falls: low-valued = under 10 mL/min/kg, mid-valued = from 10 mL/min/kg up to 50 mL/min/kg, high-valued = 50 mL/min/kg and over

Exercise: read the entry COc1nc(C2=NOCC(c3ccc(C)cc3)N2)ccc1-n1cnc(C)c1 (stereo not given) and state which class it falls under.
high-valued

And COc1nc(C2=NOCC(c3cc(Cl)cc(Cl)c3)N2)ccc1-n1cnc(C)c1 (stereo not given) ?
high-valued

Proceed to COc1nc(C2=NOCC(c3ccc(Cl)c(C4CC4)c3)N2)ccc1-n1cnc(C)c1 (stereo not given)
high-valued

Similarly, COc1nc(C2=NOCC(c3ccc(Cl)cc3)N2)ccc1-n1cnc(C)c1 (stereo not given) ?
low-valued

Entry to check: COc1nc(C2=NOCC(c3ccc(Cl)c(C)c3)N2)ccc1-n1cnc(C)c1 (stereo not given)
high-valued

Continuing:
Exercise: read the entry COc1nc(C2=NOC(C)C(c3ccc(Cl)cc3)N2)ccc1-n1cnc(C)c1 (stereo not given) and state which class it falls under.
mid-valued

// same read-out, input: COc1nc(C2=NOC(C)(C)C(c3ccccc3)N2)ccc1-n1cnc(C)c1 (stereo not given)
low-valued

What would you report for COc1nc(C2=NOCC(c3ccc(C(C)(C)C)cc3)N2)ccc1-n1cnc(C)c1 (stereo not given) ?
high-valued

Entry COc1nc(C2=NOCC(c3ccccc3)N2)ccc1-n1cnc(C)c1 (stereo in doubt; 7a) please
mid-valued

Another compound to look at: COc1nc(C2=NOCC(c3ccc(F)c(Cl)c3)N2)ccc1-n1cnc(C)c1 (stereo not given)
mid-valued
